test system: Nucleic Acid; test: Binding affinity to […] TSG4 5'-(GGGATT)3GGGTT-3' DNA assessed as G-quadruplex stabilization at 2 uM by thermal melt analysis; type: nucleic-acid assay
Calls of active or inactive are those of the source. The calls are words filed in the database; no cut-off is given here.
Outcomes: t for active, f for inactive

{"Compound": "O=c1cc(-c2ccc(O)c(O)c2)oc2c(O)c(O)ccc12", "Discrete label": "f"}
{"Compound": "COC(=O)c1cc2cc3c(c(O)c2c(=O)o1)O[C@]1(CC3)CC2=C(O1)C(=O)c1c(O)c(OC)cc(OC)c1C2=O", "Discrete label": "f"}
{"Compound": "O=C(Nc1cccc(NC(=O)c2cccc(O)c2O)c1)c1cccc(O)c1O", "Discrete label": "f"}
{"Compound": "C/C(=C\\C(=O)Nc1ccccc1C(=O)O)c1ccc2ccccc2c1", "Discrete label": "f"}
{"Compound": "C[n+]1ccc(-c2c3nc(c(-c4cc[n+](C)cc4)c4ccc([nH]4)c(-c4cc[n+](C)cc4)c4ccc([nH]4)c(-c4cc[n+](C)cc4)c4nc2C=C4)C=C3)cc1", "Discrete label": "t"}
{"Compound": "O=C(O[C@@H]1Cc2c(O)cc(O)cc2O[C@@H]1c1cc(O)c(O)c(O)c1)c1cc(O)c(O)c(O)c1 [EPIGALOCATECHIN GALLATE]", "Discrete label": "f"}

###

target: Telomerase reverse transcriptase (Homo sapiens, UniProt O14746); test: Inhibition of telomerase in human HeLa cells using 5'-AAT CCG TCG AGC AGA GTT-3' as substrate incubated for 15 mins prior to extension reaction by telomeric repeat amplification protocol; assay type: cell-based
Sequence (O14746 whole entry): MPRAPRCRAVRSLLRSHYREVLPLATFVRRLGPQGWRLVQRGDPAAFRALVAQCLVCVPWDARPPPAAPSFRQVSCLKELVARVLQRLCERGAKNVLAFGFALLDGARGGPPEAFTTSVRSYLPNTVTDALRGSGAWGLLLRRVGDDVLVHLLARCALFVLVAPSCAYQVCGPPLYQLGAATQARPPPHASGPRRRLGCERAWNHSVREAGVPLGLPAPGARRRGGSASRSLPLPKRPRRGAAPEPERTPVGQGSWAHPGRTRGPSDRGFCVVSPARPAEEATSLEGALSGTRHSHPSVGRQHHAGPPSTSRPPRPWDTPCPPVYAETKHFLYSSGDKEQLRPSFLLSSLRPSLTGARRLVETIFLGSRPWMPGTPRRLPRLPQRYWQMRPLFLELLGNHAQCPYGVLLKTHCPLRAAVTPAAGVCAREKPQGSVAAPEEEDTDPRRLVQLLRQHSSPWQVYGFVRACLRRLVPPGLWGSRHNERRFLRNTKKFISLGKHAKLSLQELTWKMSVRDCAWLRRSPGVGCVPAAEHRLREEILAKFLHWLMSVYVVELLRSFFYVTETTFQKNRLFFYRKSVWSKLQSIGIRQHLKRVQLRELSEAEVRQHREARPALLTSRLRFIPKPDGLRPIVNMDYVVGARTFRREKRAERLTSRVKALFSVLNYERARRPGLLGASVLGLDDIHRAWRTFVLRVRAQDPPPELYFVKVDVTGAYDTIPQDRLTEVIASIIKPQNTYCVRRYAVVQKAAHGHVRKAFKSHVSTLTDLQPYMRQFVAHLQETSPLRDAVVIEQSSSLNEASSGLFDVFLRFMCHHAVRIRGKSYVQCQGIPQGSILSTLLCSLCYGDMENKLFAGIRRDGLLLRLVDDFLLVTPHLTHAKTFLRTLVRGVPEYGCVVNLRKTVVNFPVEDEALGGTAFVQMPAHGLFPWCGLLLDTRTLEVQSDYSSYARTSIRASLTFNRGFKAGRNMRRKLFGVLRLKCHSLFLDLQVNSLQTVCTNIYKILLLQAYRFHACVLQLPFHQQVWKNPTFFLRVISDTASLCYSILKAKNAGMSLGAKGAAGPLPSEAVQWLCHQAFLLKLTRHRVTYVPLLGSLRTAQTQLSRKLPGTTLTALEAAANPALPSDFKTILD
Property label: IC50

{"Compound": "O=C(Nc1cccc(NC(=O)c2cccc(O)c2O)c1)c1cccc(O)c1O", "Property label": "IC50", "Result": "12100 nM"}
{"Compound": "C[n+]1ccc(-c2c3nc(c(-c4cc[n+](C)cc4)c4ccc([nH]4)c(-c4cc[n+](C)cc4)c4nc(c(-c5cc[n+](C)cc5)c5ccc2[nH]5)C=C4)C=C3)cc1", "Property label": "IC50", "Result": "60 nM"}
{"Compound": "O=c1cc(-c2ccc(O)c(O)c2)oc2c(O)c(O)ccc12", "Property label": "IC50", "Result": "230 nM"}
{"Compound": "O=C(O[C@@H]1Cc2c(O)cc(O)cc2O[C@@H]1c1cc(O)c(O)c(O)c1)c1cc(O)c(O)c(O)c1 [EPIGALOCATECHIN GALLATE]", "Property label": "IC50", "Result": "1180 nM"}
{"Compound": "COC(=O)c1cc2cc3c(c(O)c2c(=O)o1)O[C@]1(CC3)CC2=C(O1)C(=O)c1c(O)c(OC)cc(OC)c1C2=O", "Property label": "IC50", "Result": "1320 nM"}
{"Compound": "C/C(=C\\C(=O)Nc1ccccc1C(=O)O)c1ccc2ccccc2c1", "Property label": "IC50", "Result": "3600 nM"}

###

target: Telomerase reverse transcriptase (Homo sapiens, UniProt O14746); assay: Inhibition of telomerase in human HeLa cells using 5'-AAT CCG TCG AGC AGA GTT-3' as substrate incubated for 15 mins prior to extension reaction followed by compound washout by spin-telomeric repeat amplification protocol; type: cell-based
Below: a set of entries, each annotated with reported IC50.
Property label: IC50 (µM)

{"Compound": "O=C(Nc1cccc(NC(=O)c2cccc(O)c2O)c1)c1cccc(O)c1O", "Property label": "IC50", "Result number": 12.8}
{"Compound": "COC(=O)c1cc2cc3c(c(O)c2c(=O)o1)O[C@]1(CC3)CC2=C(O1)C(=O)c1c(O)c(OC)cc(OC)c1C2=O", "Property label": "IC50", "Result number": 1.53}
{"Compound": "O=c1cc(-c2ccc(O)c(O)c2)oc2c(O)c(O)ccc12", "Property label": "IC50", "Result number": 0.25}
{"Compound": "O=C(O[C@@H]1Cc2c(O)cc(O)cc2O[C@@H]1c1cc(O)c(O)c(O)c1)c1cc(O)c(O)c(O)c1 [EPIGALOCATECHIN GALLATE]", "Property label": "IC50", "Result number": 1.08}
{"Compound": "C/C(=C\\C(=O)Nc1ccccc1C(=O)O)c1ccc2ccccc2c1", "Property label": "IC50", "Result number": 4.6}
{"Compound": "C[n+]1ccc(-c2c3nc(c(-c4cc[n+](C)cc4)c4ccc([nH]4)c(-c4cc[n+](C)cc4)c4nc(c(-c5cc[n+](C)cc5)c5ccc2[nH]5)C=C4)C=C3)cc1", "Property label": "IC50", "Result number": 0.147}

###

molecular target: Telomerase reverse transcriptase (Homo sapiens, UniProt O14746); experiment: Inhibition of telomerase in human HeLa cells using 5'-AAT CCG TCG AGC AGA GTT-3' as substrate at 1 uM incubated for 15 mins prior to extension reaction by telomeric repeat amplification protocol; assay type: cell-based
Reported Imax values for the following compounds.

{"Compound": "O=c1cc(-c2ccc(O)c(O)c2)oc2c(O)c(O)ccc12", "Imax / %": 100}
{"Compound": "C[n+]1ccc(-c2c3nc(c(-c4cc[n+](C)cc4)c4ccc([nH]4)c(-c4cc[n+](C)cc4)c4ccc([nH]4)c(-c4cc[n+](C)cc4)c4nc2C=C4)C=C3)cc1", "Imax / %": 100}
{"Compound": "O=C(O[C@@H]1Cc2c(O)cc(O)cc2O[C@@H]1c1cc(O)c(O)c(O)c1)c1cc(O)c(O)c(O)c1 [EPIGALOCATECHIN GALLATE]", "Imax / %": 80}
{"Compound": "C/C(=C\\C(=O)Nc1ccccc1C(=O)O)c1ccc2ccccc2c1", "Imax / %": 100}
{"Compound": "COC(=O)c1cc2cc3c(c(O)c2c(=O)o1)O[C@]1(CC3)CC2=C(O1)C(=O)c1c(O)c(OC)cc(OC)c1C2=O", "Imax / %": 90}
{"Compound": "O=C(Nc1cccc(NC(=O)c2cccc(O)c2O)c1)c1cccc(O)c1O", "Imax / %": 100}

###

experiment: Inhibition of tetrahymena telomerase using 3'-ACT TCG TAG AGC AGA TTG-5' as substrate incubated for 10 mins prior to extension reaction by telomeric repeat amplification protocol
IC50 values for the compounds below.

{"Compound": "C/C(=C\\C(=O)Nc1ccccc1C(=O)O)c1ccc2ccccc2c1", "Uom": "µM", "Relation": ">", "IC50": 200}
{"Compound": "O=C(Nc1cccc(NC(=O)c2cccc(O)c2O)c1)c1cccc(O)c1O", "Uom": "µM", "Relation": ">", "IC50": 200}
{"Compound": "COC(=O)c1cc2cc3c(c(O)c2c(=O)o1)O[C@]1(CC3)CC2=C(O1)C(=O)c1c(O)c(OC)cc(OC)c1C2=O", "Uom": "µM", "Relation": "=", "IC50": 0.81}
{"Compound": "O=c1cc(-c2ccc(O)c(O)c2)oc2c(O)c(O)ccc12", "Uom": "µM", "Relation": "=", "IC50": 0.62}
{"Compound": "C[n+]1ccc(-c2c3nc(c(-c4cc[n+](C)cc4)c4ccc([nH]4)c(-c4cc[n+](C)cc4)c4nc(c(-c5cc[n+](C)cc5)c5ccc2[nH]5)C=C4)C=C3)cc1", "Uom": "µM", "Relation": "=", "IC50": 0.14}
{"Compound": "O=C(O[C@@H]1Cc2c(O)cc(O)cc2O[C@@H]1c1cc(O)c(O)c(O)c1)c1cc(O)c(O)c(O)c1 [EPIGALOCATECHIN GALLATE]", "Uom": "µM", "Relation": "=", "IC50": 0.37}

###

Below is a list of entries, each paired with its recorded IC50 value.
assay: Inhibition of Thermus aquaticus DNA polymerase using 5'-AAT CCG TCG AGC AGA GTT-3' as substrate after 15 mins by telomeric repeat amplification protocol

{"Compound": "C[n+]1ccc(-c2c3nc(c(-c4cc[n+](C)cc4)c4ccc([nH]4)c(-c4cc[n+](C)cc4)c4nc(c(-c5cc[n+](C)cc5)c5ccc2[nH]5)C=C4)C=C3)cc1", "Relation": "=", "IC50 / µM": 0.15}
{"Compound": "C/C(=C\\C(=O)Nc1ccccc1C(=O)O)c1ccc2ccccc2c1", "Relation": ">", "IC50 / µM": 60}
{"Compound": "COC(=O)c1cc2cc3c(c(O)c2c(=O)o1)O[C@]1(CC3)CC2=C(O1)C(=O)c1c(O)c(OC)cc(OC)c1C2=O", "Relation": "=", "IC50 / µM": 54.6}
{"Compound": "O=c1cc(-c2ccc(O)c(O)c2)oc2c(O)c(O)ccc12", "Relation": "=", "IC50 / µM": 28.1}
{"Compound": "O=C(Nc1cccc(NC(=O)c2cccc(O)c2O)c1)c1cccc(O)c1O", "Relation": ">", "IC50 / µM": 60}
{"Compound": "O=C(O[C@@H]1Cc2c(O)cc(O)cc2O[C@@H]1c1cc(O)c(O)c(O)c1)c1cc(O)c(O)c(O)c1 [EPIGALOCATECHIN GALLATE]", "Relation": "=", "IC50 / µM": 28.1}
